assay: soluble on expression in E. coli; label from the status in PepcDB or PDB records
value_kind: soluble on expression in E. coli

MERYPPIADHGLVGDLQTAALVSSQGVIDWFAAPRFDSPSIFASLLDHDGGGHFLLAPEHPEGTWRQLYYPDTGVVVTRFMSPDGVGEIIDYMPVLPGPTASDRHSLVRIVRSVRGTVRFRLVCRPRFDYLEHHHHHH	not soluble
MFVRVMKIAQNKKIVTVYPTTTIRKALMTMNENKYRRLPVVNAGNNKVVGIITSMDIVDFMGGGSKYNLIREKHERNFLAAINEPVREIMEENVITLKENADIDEAIETFLTKNVGGAPIVNDENQLISLITERDVIRALLDKIDENEVIDDYITRDVIVATPGERLKDVARTMVRNGFRRLPVVSEGRLVGIITSTDFIKLLGSDWAFNHMQTGNVREITNVRMEEIMKRDVITAKEGDKLKKIAEIMVTNDIGALPVVDENLRIKGIITEKDVLKYFA	soluble
MVTLYGIKNCDTIKKARRWLEANNIDYRFHDYRVDGLDSELLNGFINELGWEALLNTRGTTWRKLDETTRNKITDAASAAALMTEMPAIIKRPLLCAPGKPMLLGFSDSSYQQFFHEV	not soluble
MAHQYPSWIFINEKTFITREQLNSLLKTYNIFYENQKNLHILYGETEDGKLIVEGMLDIFWGVKRPIQLKIQDEKPFSSFTSMKSSDVFSSKGMTRWGEFDDLYRISELDRTQIPMSEKRNSQEDYLPYHSNTLKPHAKDEPDSPVLYRTMSEAALVRKRMKPLMMDRKERQKNRASINGHFYNHEIENSPQDFALHIIFATGEQRRLKKTDIPLLQRLLQGPSEKNARIFLMDKDAEEISSDVAQYINFHFSLLESILQRLNEEEKREIQRIVTKFNKEKAIILKCLQNKLVIKTETTV	not soluble

input: Entry MTEYIQDAIPAKLAIAIANPIFPQLDSQLRAGRHISIEMLDEHAFLMDFQTELESFYRRYHVDLIRAPEGFFYLRPKASTLIARSAMSEMEMLVGKVLCYLYLSPERLAQQGIFSQDDVYEELLNLADENKLLKAVNPRSTGSDLDRAKLAEKVGGALRRLARIGIITRVGEQNSKKFIISEAVFRFGADVRAGDDPREVQLRLIRDGEATTPTLLTTEAIEFAEDGARDELEESEAELEHHHHHH : reported soluble on expression in E. coli = ?
output: soluble

input: Entry MGSDKIHHHHHHMKRRPTINDVAKLAGVSISTVSRYLKDPSQVSEKLGERIREAIKKLGYKPNKIAQGLRTGDSKMIGFIVPDITNPAFLTIVKGAEDFLRKKGYSFIIGGTDHKSKDEVVILESFIFHNVDGVIVTCTGYENKALKELIERYHLKLVFVDRRYPGIDAPYIGVDNFGGVARMVDYLVETGHRSFAYLCGDMTSTAKERLEGFLDRMKKYKIKDYQVLYGEFTFESGYKLTKRLSKIPDAIIAGNDLMAFGVIEALKERGLVVPEDVSVTGFDDMFFSKYYKPSLTTVRQDLYEMGKQAGKVLFALISGKKIRKKEYILPTEIVIRDSVKERRA : reported soluble on expression in E. coli = ?
output: not soluble

Just for reference, the DeepSol protein solubility set is where these values come from.
